Reference source for all entries: patent US7812014B2

- TARGET_SYSTEM: UniProtKB P05364
- Sequence (P05364 21-381): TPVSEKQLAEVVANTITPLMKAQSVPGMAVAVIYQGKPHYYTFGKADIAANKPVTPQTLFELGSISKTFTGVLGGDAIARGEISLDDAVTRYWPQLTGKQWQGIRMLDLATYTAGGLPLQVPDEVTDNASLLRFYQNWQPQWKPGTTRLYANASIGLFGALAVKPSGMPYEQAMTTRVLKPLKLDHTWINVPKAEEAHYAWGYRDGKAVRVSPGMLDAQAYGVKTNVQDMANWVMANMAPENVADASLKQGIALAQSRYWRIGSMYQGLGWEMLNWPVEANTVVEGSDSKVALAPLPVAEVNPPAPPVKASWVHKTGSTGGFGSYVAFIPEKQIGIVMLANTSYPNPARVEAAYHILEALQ
- TEST_PROTOCOL: biochemical
- Design: species or system Enterobacter cloaca
- CONDITION_DETAILS: enzyme 2.1 nM; 10 minutes preincubation at 25° C.; nitrocefin 50 μg/ml; pH 7.0; read-out: IC50 (nM) Class C AmpC
- Description: IC50 Determination for the Penem Inhibitor β-Lactamase inhibitory activity of the penem inhibitors was determined spectrophotometrically as described by Bush et al., [Bush, K., Macalintal, C., Rasmussen, B. A., Lee, V. and Yang, Y. Antimicrobial Agents and Chemotherapy 1993, 37, 851]. […] Initial rates of hydrolysis were monitored for 5 minutes at 495 nm using a Molecular Devices Spectra Max 250 with kinetic protocol of SoftMax Program. […]
Counter-ions that a name gives are not always drawn.
QUANTITY_MEASURED: IC50 (nM)

molecule="CC(=O)N1CCc2sc(/C=C3/C(=O)N4C(C(=O)[O-])=CS[C@H]34)cc2C1.[Na+] (single isomer, unassigned) [Example 34, Sodium salt]" quantity_measured=IC50 measurement_units=nM test_result=6.5
molecule="CN1Cc2nc(/C=C3/C(=O)N4C(C(=O)O)=CS[C@H]34)cn2CC1=O [Example 10, sodium salt]" quantity_measured=IC50 measurement_units=nM test_result=3
molecule=O=C(O)C1=CS[C@@H]2/C(=C\c3cnc4n3CCSC4)C(=O)N12 quantity_measured=IC50 measurement_units=nM test_result=2.5
molecule=O=C(O)C1=CS[C@@H]2/C(=C\c3cc4c(s3)CCN(Cc3ccccc3)C4)C(=O)N12 quantity_measured=IC50 measurement_units=nM test_result=12
